system: SNB-75 CNS; assay: NCI-60 one-dose screen, 48 h (100 = growth as untreated, 0 = no growth, -100 = all killed); details: 10 µM unless noted
Compounds without any hit were thinned out: in the full panel of roughly 83,000, 20% have a hit.
Labelling field: enter true if recorded growth is less than 70%. Enter false if it equals or exceeds that cut-off.

Asked: Criterion: growth strictly below 70%. Is it met by CCOc1ccccc1C(=O)/C=C/c1cc2ccccc2[nH]c1=O ?
Given back: true

Asked: Criterion: growth strictly below 70%. Is it met by C/C(=N\NC(=O)c1ccncc1)c1ccc(N)cc1 ?
Given back: false

Asked: Criterion: growth strictly below 70%. Is it met by CCOCc1cc(C(C)(C)C)ccc1O ?
Given back: false

Asked: Criterion: growth strictly below 70%. Is it met by COc1cc(-c2cn(-c3ccc(Cl)c(Cl)c3)c(=O)[nH]2)cc(OC)c1OC ?
Given back: false

Asked: Criterion: growth strictly below 70%. Is it met by OCCNc1nc(NCCO)nc(Nc2ccc(C3=NN(c4cc(Cl)cc(Cl)c4)C(c4ccc(C(F)(F)F)cc4)C3)cc2)n1 (configuration not stated) ?
Given back: true

Asked: Criterion: growth strictly below 70%. Is it met by C=C1C(=O)O[C@H]2[C@H]1CC/C(C=Nc1c(N)cc(C(F)(F)F)cc1Br)=C\CC[C@@]1(C)O[C@@H]21 ?
Given back: false

Asked: Criterion: growth strictly below 70%. Is it met by C=C1C(=O)O[C@H]2[C@H]1CC/C(COC(=O)CCCCC(=O)OC/C1=C/CC[C@@]3(C)O[C@H]3[C@H]3OC(=O)C(=C)[C@@H]3CC1)=C\CC[C@@]1(C)O[C@@H]21 ?
Given back: false

Asked: Criterion: growth strictly below 70%. Is it met by COc1ccc(/C=C(/C(=O)N2CCN(Cc3ccccc3)CC2)c2cc(OC)c(OC)c(OC)c2)cc1O ?
Given back: true

Asked: Criterion: growth strictly below 70%. Is it met by COc1cc(/C=C/CO)cc(OC)c1O[C@@H]1O[C@H](CO)[C@@H](O)[C@H](O)[C@H]1O ?
Given back: false

Asked: Criterion: growth strictly below 70%. Is it met by CCC[S@](=O)c1ccc2nc(NC(=O)OC)[nH]c2c1 ?
Given back: false

Asked: Criterion: growth strictly below 70%. Is it met by O=C(NC[C@H](O)CN1CCc2ccccc2C1)c1cc(NC2COC2)ncn1 ?
Given back: false

Asked: Criterion: growth strictly below 70%. Is it met by C=C1C(=O)O[C@H]2[C@H]1CC/C(COC(=O)N1CCC[C@H]1C(=O)Nc1ccc(OC)c(C(N)=O)c1O)=C\CC[C@@]1(C)O[C@@H]21 ?
Given back: false

Asked: Criterion: growth strictly below 70%. Is it met by [2H]c1cc2c(c([2H])c1F)/C(=C/c1[nH]c(C)c(C(=O)NCCN(CC)CC)c1C)C(=O)N2 ?
Given back: true

Asked: Criterion: growth strictly below 70%. Is it met by Cc1cc(Cl)cc(CN(Cc2ccccc2)Cc2c(O)ccc3ccccc23)c1O ?
Given back: false

Asked: Criterion: growth strictly below 70%. Is it met by CC1=C(CCCOC(=O)NCCCl)C2=C(C)C3(CC3)[C@@](C)(O)C(=O)C2=C1 ?
Given back: true

Asked: Criterion: growth strictly below 70%. Is it met by Nc1c(C(=O)Nc2ccccn2)sc2nc3c(cc12)CCCCCC3 ?
Given back: true

Asked: Criterion: growth strictly below 70%. Is it met by COc1ccc(/C=C/C(=O)C(CC2CCC2)C(=O)/C=C/c2ccc(OC)c(OC)c2)cc1OC ?
Given back: true

Asked: Criterion: growth strictly below 70%. Is it met by Cc1cccc(C)c1NCc1nnc(-c2ccco2)o1 ?
Given back: false

Asked: Criterion: growth strictly below 70%. Is it met by Cc1cc2ccccc2c[n+]1CC(=O)c1ccc(-c2ccccc2)cc1 ?
Given back: true

Asked: Criterion: growth strictly below 70%. Is it met by N#Cc1c(-c2ccc(F)cc2)nc(N/N=C/c2cccc(O)c2)nc1N1CCOCC1 ?
Given back: false

Asked: Criterion: growth strictly below 70%. Is it met by C=C1C(=O)O[C@H]2[C@H]1CC/C(COC(=O)NCC(=O)Nc1ccc(OC)c(C(N)=O)c1O)=C\CC[C@@]1(C)O[C@@H]21 ?
Given back: false

Asked: Criterion: growth strictly below 70%. Is it met by O=CN1N=C(c2ccc(F)cc2)CC1c1cccc(Nc2ccnc3cc(C(F)(F)F)ccc23)c1 (configuration not stated) ?
Given back: false

Asked: Criterion: growth strictly below 70%. Is it met by COc1ccccc1N1CCN(CCCOc2ccc(C(=O)/C=C3/C(=O)Nc4ccccc43)cc2)CC1 ?
Given back: false

Asked: Criterion: growth strictly below 70%. Is it met by COc1ccc(-n2nc(C(=O)NCC(=O)O)nc2-c2ccccc2)cc1 ?
Given back: false

Asked: Criterion: growth strictly below 70%. Is it met by C=C(C)[C@@H]1CC[C@]2(C(=O)n3ccnc3)CC[C@]3(C)[C@H](CC[C@@H]4[C@@]5(C)CCCNC(C)(C)[C@@H]5CC[C@]43C)[C@@H]12 ?
Given back: false

Asked: Criterion: growth strictly below 70%. Is it met by Cc1cnc(SCc2ccc(Cl)cc2)[nH]c1=S ?
Given back: false

Asked: Criterion: growth strictly below 70%. Is it met by CCOCCc1c(O)nc(SC)[nH]c1=O ?
Given back: false

Asked: Criterion: growth strictly below 70%. Is it met by Nc1c(C(=O)Nc2cccc3ccccc23)sc2nc3c(cc12)CCCCC3 ?
Given back: true

Asked: Criterion: growth strictly below 70%. Is it met by c1ccc2c3c([nH]c2c1)C(c1ccc(C2NCCc4c2[nH]c2ccccc42)cc1)NCC3 (configuration not stated) ?
Given back: true

Asked: Criterion: growth strictly below 70%. Is it met by Nc1ccc(C2=NN(C(=O)c3cc(-c4ccc(Cl)cc4)nc4ccccc34)C(c3ccc(Cl)cc3)C2)cc1 (configuration not stated) ?
Given back: true

Asked: Criterion: growth strictly below 70%. Is it met by CCCCc1nc(Cl)c(C2CC(c3ccc(Cl)cc3)=NN2c2cc(Cl)cc(Cl)c2)[nH]1 (configuration not stated) ?
Given back: true

Asked: Criterion: growth strictly below 70%. Is it met by CCOCc1nc2ccccc2c(=O)[nH]1 ?
Given back: false

Asked: Criterion: growth strictly below 70%. Is it met by O=C1C(Cl)=C(NCCCN(CCCNC2=C(Cl)C(=O)c3ccccc3C2=O)C2=C(Cl)C(=O)c3ccccc3C2=O)C(=O)c2ccccc21 ?
Given back: false

Asked: Criterion: growth strictly below 70%. Is it met by C#C[C@@]1(O)[C@@H](CO)O[C@@H](n2cc(I)c3c(N)ncnc32)[C@@H]1O ?
Given back: true

Asked: Criterion: growth strictly below 70%. Is it met by CCN1CCC[C@H]1c1cc(O)c2c(c1OC)C[C@H]1C[C@H]3[C@H](N)C(=O)C(C(N)=O)=C(O)[C@@]3(O)C(=O)C1=C2O ?
Given back: true

Asked: Criterion: growth strictly below 70%. Is it met by N#Cc1c(-c2ccc(F)cc2)c(C#N)c2c(C#N)c(N)nn2c1N ?
Given back: false

---

tested on: A549/ATCC NSCLC; test: NCI-60 one-dose screen, 48 h; conditions: 10 µM unless noted
This is part of a sample that, as a whole, favours compounds with a hit. Of some 83,000 tested, about 20% had one in any assay. The source made the active and inactive calls. Rule for the calls: active = growth percent below 10; inactive = the rest.
Returns: one label drawn from 1 (yes) (active), 0 (no) (inactive)

Asked: In this assay, the call recorded for CCOC(=O)NCCc1nc2c([nH]1)c(=O)n(C)c(=O)n2C was what?
Given back: 0 (no)

Asked: In this assay, the call recorded for N#Cc1ccc(N2Cc3cc(Cl)ccc3OC3=C2C(=O)N(Cc2ccc(F)cc2)C3=O)cc1 was what?
Given back: 0 (no)

Asked: In this assay, the call recorded for COC(=O)c1cc2c3c(cc(O)c2[nH]1)N(C(=O)C1Cc2cc(OC)c(OC)c(OC)c2N1)CC3CCl (centres undefined) was what?
Given back: 1 (yes)

Asked: In this assay, the call recorded for Cc1ccc(C(=O)/C(=C/c2ccc([N+](=O)[O-])cc2)S(=O)Cc2ccccc2)cc1 (centres undefined) was what?
Given back: 0 (no)

Asked: In this assay, the call recorded for C=C1C(=O)O[C@H]2[C@H]1CC/C(COC(=O)CCCCCCCC(=O)OC/C1=C/CC[C@@]3(C)O[C@H]3[C@H]3OC(=O)C(=C)[C@@H]3CC1)=C\CC[C@@]1(C)O[C@@H]21 was what?
Given back: 0 (no)

Asked: In this assay, the call recorded for O=CN1N=C(c2ccc3c(c2)OCO3)CC1c1cccc(Nc2ccnc3cc(C(F)(F)F)ccc23)c1 (centres undefined) was what?
Given back: 0 (no)

Asked: In this assay, the call recorded for COc1ccc2[nH]c3nc4cnccc4cc3c2c1 was what?
Given back: 0 (no)

Asked: In this assay, the call recorded for COc1ccc(NC(=O)c2sc3nc(C)c(C(C)=O)cc3c2N)cc1 was what?
Given back: 0 (no)

Asked: In this assay, the call recorded for CC(=O)c1cc2c(N)c(C(=O)Nc3ccccn3)sc2nc1C was what?
Given back: 0 (no)
